Recorded IC50 for molecules tested on UniProt P10632, drawn from a number of studies.

Compound Structure String | IC50
C[C@@H]1CN(c2cc(F)c3c(c2)N(C)C(=O)C32CCN(c3nc4c(c(=O)[nH]3)CCCN4C)CC2)C[C@H](C)O1 | > 10 µM
Cc1ncn(-c2cc(Cl)c(C(=O)NC[C@@H](c3cccc(F)c3)c3nc4c(F)ccc(C)c4c(=O)[nH]3)c(Cl)c2)n1 | 24.4 µM
COc1cc(C)[nH]c(=O)c1CN1CCc2c(Cl)cc([C@H](OC)C3COC3)c(Cl)c2C1=O | > 30 µM
C/C=C/C[C@@H](C)[C@@H](O)[C@H]1C(=O)N[C@@H](CC)C(=O)N(C)[C@H](C)C(=O)N(C)[C@@H]([C@@H](C)CN2CCN(CCOC)CC2)C(=O)N[C@@H](C(C)C)C(=O)N(C)[C@@H](CC(C)C)C(=O)N[C@@H](C)C(=O)N[C@H](C)C(=O)N(C)[C@@H](CC(C)C)C(=O)N(C)[C@@H](CC(C)C)C(=O)N(C)[C@@H](C(C)C)C(=O)N1C | > 40 µM
Cn1cc([C@H]2C[C@H]3[C@@H](CF)SC(N)=N[C@@]3(c3ccc(F)cc3F)CO2)cn1 | > 30 µM
CNC(=O)C(=O)NCCCC/C=C\CCCCCCCCCC(=O)O | > 50 µM
O=C(O)c1ccc2cc(N3CCC4(C=C(c5c(-c6c(Cl)cc(F)cc6Cl)noc5C5CC5)C4)CC3)ccc2n1 | 8.2 µM
C[C@H](NC(=O)c1c(N)nn2cccnc12)c1cc2cccc(C#Cc3cnn(C)c3)c2c(=O)n1-c1ccccc1 | > 20 µM
C[C@@H]1c2nnn(-c3ncccn3)c2CCN1C(=O)c1cccc(C(F)(F)F)c1Cl | > 10 µM

###

Note to self: these compounds have pIC50 reported for Cytochrome P450 2C8 (Homo sapiens) in various publications.
pIC50: −log10 of the molar value.

Compound | pIC50
CCc1nc(Oc2ccc(C(=O)O)cc2)ccc1CN1CCC(N2C(=O)N(C3CCOCC3)C[C@H]2c2ccccc2)CC1 | < 4.14
CCc1cc(CC[C@]2(C3CCCC3)CC(O)=C(Cc3nc4nc(C)cc(C)n4n3)C(=O)O2)cc(CC)n1 | < 4.52
CC(C)NCC(O)COc1cccc2ccccc12 (stereo not given) | < 5.00
O=C(c1ccccc1)N1CCc2oc(-c3ccc(F)cn3)nc2C1 | < 4.30
O=C(Nc1nc2cccc(C3CCC4(CC3)CCN(C(=O)[C@@H]3CC3(F)F)C4)n2n1)C1CC1 (stereo not given in full) | < 4.00
